System: Plasmodium berghei
Assay Name: Antimalarial activity against Plasmodium berghei NK65 infected in Swiss mouse assessed as inhibition of parasitemia at 50 mg/kg, ip administered 2 hrs postinfection daily for 4 days measured on day 5
Format: functional
Settings: route intraperitoneal
Endpoint Label: inhibition in vivo at 50 mg/kg (%)
Report only the number, with the unit % understood.

Answered examples (3):
• OC1(Cc2ccc(Cl)cc2)c2ccccc2C2=NCCN21 (stereo not given) = 7
• CSc1ccc(CC2(O)c3ccccc3C3=NCCN32)cc1 (stereo not given) = 84
• OC1(Cc2ccc3c(c2)OCO3)c2ccccc2C2=NCCN21 (stereo not given) = 53

Turning to the following compound.
QUERY: Can you share its inhibition in vivo at 50 mg/kg? I mean this compound: COc1ccc(CC2(O)c3ccccc3C3=NCCN32)cc1 (stereo not given)
RESULT: 23
